- Test system: Rattus norvegicus
- test_context: reproduction developmental; oral; diet; Sprague-Dawley; generation: F1
Measured NOAEL by item

Solved entries:
Q) Name the recorded NOAEL of the item CC(C)(C)CC(C)(C)c1ccc(O)cc1 in your answer.
A) 200 ppm

Q) Recall and state the measured NOAEL for CCC(C)(CCC(C)C)C(=O)O (stereo not given) .
A) 1500 ppm

Q) Provide measured NOAEL value, entry: O=C(Nc1ccc(Cl)cc1)Nc1ccc(Cl)c(Cl)c1
A) 1000 ppm

Q) Please give the documented NOAEL of S=c1[nH]c2ccccc2s1
A) < 5000 ppm

Lab note: next molecule to report on.
Q) Answer with the recorded NOAEL for the molecule listed here: CC(C)CC(C)(O)C#CC(C)(O)CC(C)C (stereo not given)
A) 500 mg/kg-day

---

- Test system: Rattus norvegicus
- test_context: repeat dose other; oral
measure_name: NOAEL (mg/kg-day)
Record the value in mg/kg-day, omitting the unit from your answer.

As a guide, the following entries are already answered.
Q) Give NOAEL for the following compound: O=C1C2(Cl)C3(Cl)C4(Cl)C(Cl)(Cl)C5(Cl)C3(Cl)C1(Cl)C5(Cl)C24Cl (stereo not given)
A) 0.08

Q) Given the compound CCO , write its reported NOAEL.
A) 31.9

Q) Look up NOAEL of ClC1=C(Cl)[C@]2(Cl)[C@H]3[C@H]([C@@H]4C=C[C@H]3C4)[C@@]1(Cl)C2(Cl)Cl and report it.
A) 0.2

Q) Annotate the compound ClCCl with its measured NOAEL.
A) 5.85

Q) Identify measured NOAEL associated with CC(=O)CC(C)C
A) 25

Q) Identify the reported NOAEL for the following entry. C1COCCO1
A) 0.5

---
Q) Using known records, supply NOAEL for [O-2].[Zn+2] [Zinc oxide]
A) 160

Q) Annotate the compound C=C(Cl)Cl with its measured NOAEL.
A) 30

Q) Supply NOAEL value. Item: Clc1cc2oc3c(Cl)c(Cl)c(Cl)cc3c2cc1Cl
A) 1.6e-05

Q) For the compound Clc1ccc(C(c2ccc(Cl)cc2)C(Cl)(Cl)Cl)cc1 , give its measured NOAEL value.
A) 0.8

---

- Test system: Mus musculus
- test_context: repeat dose other; oral
NOAEL strictly less than 5 mg/kg-day = Yes. Otherwise No.

Here are 5 compounds together with their reported answers.
Q) Input ClC1=C(Cl)C2(Cl)C3C(Cl)C(Cl)CC3C1(Cl)C2(Cl)Cl (stereo unspecified) ; condition: NOAEL strictly below 5 mg/kg-day. Does it hold?
A) Yes

Q) NOAEL strictly < 5 mg/kg-day for this compound? CCC[CH2][Sn]([CH2]CCC)([CH2]CCC)[O][Sn]([CH2]CCC)([CH2]CCC)[CH2]CCC [Bis(tributyltin)oxide]
A) No

Q) Here's an entry: [Na+].[O]=[Nb](=[O])[O-] [Sodium niobate (NaNbO3)] . Is its NOAEL below 5 mg/kg-day?
A) Yes

Q) Please state whether NOAEL is below 5 mg/kg-day for Cc1ccccc1
A) No

Q) # TODO verify NOAEL < 5 mg/kg-day strictly for this compound: ClC1=C(Cl)[C@]2(Cl)[C@@H]3[C@H]4C[C@H]([C@@H]5O[C@H]45)[C@@H]3[C@@]1(Cl)C2(Cl)Cl
A) Yes

Pending compound:
Q) # strict comparison: is reported NOAEL < 5 mg/kg-day? input = [Cl][Al]([Cl])[Cl] [Aluminum chloride]
A) Yes

Taken from EPA's ToxValDB 9.5.
